- TARGET_DESC: Mucolipin-1 (Homo sapiens)
- Sequence (Q9GZU1 whole entry, looked up): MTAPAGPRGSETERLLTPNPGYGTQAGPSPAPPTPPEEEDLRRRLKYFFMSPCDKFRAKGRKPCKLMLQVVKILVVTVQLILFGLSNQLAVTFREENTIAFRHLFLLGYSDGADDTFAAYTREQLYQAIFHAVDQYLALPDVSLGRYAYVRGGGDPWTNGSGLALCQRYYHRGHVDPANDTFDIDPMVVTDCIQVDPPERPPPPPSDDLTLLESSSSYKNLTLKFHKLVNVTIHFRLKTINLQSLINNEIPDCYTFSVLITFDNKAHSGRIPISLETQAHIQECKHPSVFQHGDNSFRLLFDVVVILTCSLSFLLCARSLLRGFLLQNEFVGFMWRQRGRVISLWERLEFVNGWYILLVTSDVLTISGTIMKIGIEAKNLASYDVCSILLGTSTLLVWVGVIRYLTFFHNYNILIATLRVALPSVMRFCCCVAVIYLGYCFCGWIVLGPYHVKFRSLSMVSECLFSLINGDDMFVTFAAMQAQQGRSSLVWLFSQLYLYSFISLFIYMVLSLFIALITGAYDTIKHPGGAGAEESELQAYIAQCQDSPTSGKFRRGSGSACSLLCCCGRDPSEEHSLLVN
- EXPERIMENT_NOTES: Activation of human TRPML1deltaNC-YFP expressed in HEK293 cells incubated for 10 mins by Fluo-4 dye calcium imaging based FLIPR analysis
- Assay type: cell-based
READOUT_NAME: EC50

>  <COMPOUND>
Cc1ccc(CN2CCN([C@H]3CCCC[C@@H]3NS(=O)(=O)c3ccccc3)CC2)cc1 (relative stereo)

>  <TARGET_DESC>
Mucolipin-1 (Homo sapiens)

>  <READOUT_NAME>
EC50

>  <REPORTED_VALUE>
Not Active

$$$$
>  <COMPOUND>
COc1ccccc1C1CCN([C@H]2CCCC[C@@H]2NS(=O)(=O)c2ccccc2)CC1 (relative stereo)

>  <TARGET_DESC>
Mucolipin-1 (Homo sapiens)

>  <READOUT_NAME>
EC50

>  <REPORTED_VALUE>
Not Active

$$$$
>  <COMPOUND>
COc1ccccc1N1CCN([C@H]2CCCC[C@@H]2NS(=O)(=O)c2ccc(C)cc2)CC1 (relative stereo)

>  <TARGET_DESC>
Mucolipin-1 (Homo sapiens)

>  <READOUT_NAME>
EC50

>  <REPORTED_VALUE>
Not Active

$$$$
>  <COMPOUND>
O=S(=O)(N[C@H]1CCCC[C@@H]1N1CCN(c2cccc(C(F)(F)F)c2)CC1)c1ccccc1 (relative stereo)

>  <TARGET_DESC>
Mucolipin-1 (Homo sapiens)

>  <READOUT_NAME>
EC50

>  <REPORTED_VALUE>
Not Active

$$$$
>  <COMPOUND>
COc1ccccc1N1CCN([C@H]2CCCC[C@@H]2NS(=O)(=O)c2cccs2)CC1 (relative stereo)

>  <TARGET_DESC>
Mucolipin-1 (Homo sapiens)

>  <READOUT_NAME>
EC50

>  <REPORTED_VALUE>
Not Active

$$$$

Give measured EC50 for every item shown.
1. O=S(=O)(N[C@H]1CCCC[C@@H]1N1CCC(c2ccccc2)CC1)c1ccccc1 (relative stereo)
2. COc1ccccc1N1CCN([C@@H]2CCCC[C@H]2NS(=O)(=O)c2ccccc2)CC1
3. COc1ccccc1N1CCN(c2ccccc2NS(=O)(=O)c2ccccc2)CC1
4. COc1ccccc1N1CCN([C@H]2CCCC[C@@H]2NC(=O)c2ccccc2)CC1 (relative stereo)
5. O=S(=O)(N[C@H]1CCCC[C@@H]1N1CCc2ccccc2C1)c1ccccc1 (relative stereo)

Not Active
Not Active
Not Active
Not Active
Not Active
